Provenance of the data: patent US20220298235A1

# tested.system: T1, human p40-His (human, UniProt P29460 23-328)
# T1 construct: Made by Akeso Biopharma; construct limits and tag not described; also called human IL-12/IL-23 p40 protein domain; human IL-12/IL-23 p40; not shown: His tag
# T1 sequence (looked up): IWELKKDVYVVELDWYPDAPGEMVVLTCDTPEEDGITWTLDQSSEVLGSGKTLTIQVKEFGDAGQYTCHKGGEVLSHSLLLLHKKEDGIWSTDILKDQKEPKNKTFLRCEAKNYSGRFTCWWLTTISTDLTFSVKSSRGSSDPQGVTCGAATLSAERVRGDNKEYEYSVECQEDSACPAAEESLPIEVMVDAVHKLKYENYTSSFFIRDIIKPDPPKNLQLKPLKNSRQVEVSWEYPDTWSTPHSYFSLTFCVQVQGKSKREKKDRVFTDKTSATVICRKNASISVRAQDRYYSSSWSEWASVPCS
# protocol.summary: BLI (Fortebio), p40-His on HIS1K sensor, antibody 5-0.31 nM, 37 °C, 1:1 fit
value.type: pKd
Reminder that pKd is minus the log10 of a molar concentration.

// known answers, use as guide
### Prompt Suppose we examine the binder H5L10 (antibody, human IgG1, kappa, V domains shown, human IgG1 / kappa constant regions; also called humanized antibody H5L10) VH: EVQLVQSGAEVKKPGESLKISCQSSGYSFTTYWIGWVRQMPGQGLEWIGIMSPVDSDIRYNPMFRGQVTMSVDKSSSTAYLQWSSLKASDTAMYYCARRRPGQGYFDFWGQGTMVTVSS VL: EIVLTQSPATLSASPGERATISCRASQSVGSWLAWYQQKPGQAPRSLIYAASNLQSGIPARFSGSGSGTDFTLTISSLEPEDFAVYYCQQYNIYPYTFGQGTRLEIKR ; what pKd value has been reported?
### Response 9.92

### Prompt Follow-up item: H5L14 (antibody, human IgG1, kappa, V domains shown, human IgG1 / kappa constant regions; also called humanized antibody H5L14) VH: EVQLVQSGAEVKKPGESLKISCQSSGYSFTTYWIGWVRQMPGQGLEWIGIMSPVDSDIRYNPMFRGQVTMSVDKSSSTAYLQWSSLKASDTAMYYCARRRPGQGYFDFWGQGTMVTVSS VL: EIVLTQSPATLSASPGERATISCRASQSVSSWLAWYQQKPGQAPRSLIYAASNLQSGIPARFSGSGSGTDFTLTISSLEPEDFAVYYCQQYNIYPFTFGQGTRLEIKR
### Response 10.21

### Prompt Follow-up item: H5L11 (antibody, human IgG1, kappa, V domains shown, human IgG1 / kappa constant regions; also called humanized antibody H5L11) VH: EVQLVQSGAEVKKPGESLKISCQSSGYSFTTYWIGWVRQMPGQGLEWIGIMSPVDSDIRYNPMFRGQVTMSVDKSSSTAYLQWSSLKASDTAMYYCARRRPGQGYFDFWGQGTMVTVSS VL: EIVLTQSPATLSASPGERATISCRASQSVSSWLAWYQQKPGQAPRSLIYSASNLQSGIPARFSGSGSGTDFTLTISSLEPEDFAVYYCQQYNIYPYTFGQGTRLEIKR
### Response 9.87

### Prompt Follow-up item: H8L15 (antibody, human IgG1, kappa, V domains shown, human IgG1 (P01857) / kappa (P01834) constant regions; also called anti-human IL-12/IL-23 p40 antibody H8L15; H8L15H1L1) VH: EVQLVQSGAEVKKPGESLKISCQSSGYTFTSYWIGWVRQMPGQGLEWIGIMSPVDSDIRYNPMFRGQVTMSVDKSSSTAYLQWSSLKASDTAMYYCARRRPGQGYFDFWGQGTMVTVSS VL: EIVLTQSPATLSASPGERATISCRASQSVGTWVAWYQQKPGQAPRSLIYAASNLQSGIPARFSGSGSGTDFTLTISSLEPEDFAVYYCQQYNIYPYTFGQGTRLEIKR
### Response 10.22

### Prompt Follow-up item: H5L9 (antibody, human IgG1, kappa, V domains shown, human IgG1 (P01857) / kappa (P01834) constant regions; also called humanized antibody H5L9) VH: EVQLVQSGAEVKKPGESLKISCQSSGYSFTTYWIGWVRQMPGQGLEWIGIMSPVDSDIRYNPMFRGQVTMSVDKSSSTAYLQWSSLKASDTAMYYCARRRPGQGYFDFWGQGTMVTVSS VL: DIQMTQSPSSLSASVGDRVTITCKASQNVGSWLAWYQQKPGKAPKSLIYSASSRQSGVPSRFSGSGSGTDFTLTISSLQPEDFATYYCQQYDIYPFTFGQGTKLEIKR
### Response 9.07

### Prompt Follow-up item: H5L12 (antibody, human IgG1, kappa, V domains shown, human IgG1 / kappa constant regions; also called humanized antibody H5L12) VH: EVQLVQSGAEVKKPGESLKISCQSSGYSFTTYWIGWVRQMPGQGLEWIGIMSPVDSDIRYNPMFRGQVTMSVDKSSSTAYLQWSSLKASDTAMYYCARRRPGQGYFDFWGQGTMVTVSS VL: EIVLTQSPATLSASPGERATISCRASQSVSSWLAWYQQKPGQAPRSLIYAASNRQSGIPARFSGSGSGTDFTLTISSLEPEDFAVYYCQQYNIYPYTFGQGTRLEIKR
### Response 10.04

Shifting focus to the binder that follows.
### Prompt Suppose we examine the binder ustekinumab (antibody, V domains shown) VH: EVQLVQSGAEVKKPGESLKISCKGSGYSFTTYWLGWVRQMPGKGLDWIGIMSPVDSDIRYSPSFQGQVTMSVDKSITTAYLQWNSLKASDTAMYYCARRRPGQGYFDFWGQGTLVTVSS VL: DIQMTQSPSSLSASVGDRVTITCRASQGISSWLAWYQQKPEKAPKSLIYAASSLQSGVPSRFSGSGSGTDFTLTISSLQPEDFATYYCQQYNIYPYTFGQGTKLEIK ; what pKd value has been reported?
### Response 10.06
